tested on: HOP-62 (NSC lung cancer); experiment: NCI-60 screen (SRB, 48 h); conditions: Homo sapiens, HOP-62
Listing of entries alongside the reported GI50.
// return the numeric value with its unit appended

Record excerpt, results attached:
C=C(C)[C@@H]1CC[C@]2(C(=O)N[C@H](CO)Cc3ccccc3)CC[C@]3(C)[C@H](CC[C@@H]4[C@@]5(C)CCCNC(C)(C)[C@@H]5CC[C@]43C)[C@@H]12 [Compound 11]
1710 nM
Cc1ccc(S(=O)(=O)OC[C@]23CCC(C)(C)C[C@H]2C2=CC[C@@H]4[C@@]5(C)CCCNC(C)(C)[C@@H]5CC[C@@]4(C)[C@]2(C)CC3)cc1 [Compound 15]
1810 nM

Switching to the query record.
Value of measured GI50 for the entry C=C(C)[C@@H]1CC[C@]2(C)[C@H](CC=C3[C@@H]4[C@@H](C)[C@H](C)CC[C@]4(CO)CC[C@]32C)[C@@]1(C)CCCN [Compound 19] : 1080 nM

---

Listing of entries alongside the reported IC (TGI).
system: MALME-3M (Melanoma); assay: NCI-60 screen (SRB, 48 h); details: Homo sapiens, 48 h, read-out: TGI
Give just the number in µM; leave the unit off.

Record excerpt, results attached:
CC(C)=C1CCC=C2CC[C@]3(C)[C@H](CC[C@@H]4[C@@]5(C)CCCNC(C)(C)[C@@H]5CC[C@]43C)[C@H]21
3.48
C=C(C)[C@@H]1CC[C@]2(C)[C@H](CC=C3[C@@H]4[C@@H](C)[C@H](C)CC[C@]4(CO)CC[C@]32C)[C@@]1(C)CCCN
1.42
C=C(C)[C@@H]1CCC=C2CC[C@]3(C)[C@H](CC[C@@H]4[C@@]5(C)CCCNC(C)(C)[C@@H]5CC[C@]43C)[C@H]21
3.46
C=C(C)[C@@H]1CC[C@]2(COS(=O)(=O)c3ccc(C)cc3)CC[C@]3(C)[C@@H](CC[C@@H]4[C@@]5(C)CCCNC(C)(C)[C@@H]5CC[C@]43C)[C@@H]12
3.79
C=C(C)[C@@H]1CC[C@]2(C)[C@H](C=CC3=C4C[C@@](C)(CO)CC[C@]4(C)CC[C@]32C)[C@@]1(C)CCCN
2.91
Cc1ccc(S(=O)(=O)OC[C@@]2(C)CC[C@]3(C)CC[C@]4(C)C(=C3C2)C=C[C@@H]2[C@@]3(C)CCCNC(C)(C)[C@@H]3CC[C@]24C)cc1
3.26
C[C@H]1[C@H](C)CC[C@]2(CO)CC[C@]3(C)C(=CC[C@@H]4[C@@]5(C)CCCNC(C)(C)[C@@H]5CC[C@]43C)[C@H]12
3.44
C=C(C)C1CCC2(CO)CCC3(C)C(CCC4C5(C)CCCNC(C)(C)C5CCC43C)C12 (stereo not drawn)
3.05

Value of measured IC (TGI) for the entry CC1(C)NCCC[C@]2(C)[C@H]3C=CC4=C5C[C@@](C)(CO)CC[C@]5(C)CC[C@@]4(C)[C@]3(C)CC[C@@H]12 : 8.01

Value of measured IC (TGI) for the entry Cc1ccc(S(=O)(=O)OC[C@]23CCC(C)(C)C[C@H]2C2=CC[C@@H]4[C@@]5(C)CCCNC(C)(C)[C@@H]5CC[C@@]4(C)[C@]2(C)CC3)cc1 : 3.56

Value of measured IC (TGI) for the entry CC1(C)CC[C@]23CC[C@]4(C)[C@H](CC[C@@H]5[C@@]6(C)CCCNC(C)(C)[C@@H]6CC[C@]54C)[C@H]2[C@H]1OC3 : 3.47

Value of measured IC (TGI) for the entry CC1(C)CC[C@]2(CO)CC[C@]3(C)C(=CC[C@@H]4[C@@]5(C)CCCNC(C)(C)[C@@H]5CC[C@]43C)[C@@H]2C1 : 3.56

// data source = paper PMC7914897
